- Experimental target: UniProt P29452
- Sequence (P29452 119-296 limits assumed): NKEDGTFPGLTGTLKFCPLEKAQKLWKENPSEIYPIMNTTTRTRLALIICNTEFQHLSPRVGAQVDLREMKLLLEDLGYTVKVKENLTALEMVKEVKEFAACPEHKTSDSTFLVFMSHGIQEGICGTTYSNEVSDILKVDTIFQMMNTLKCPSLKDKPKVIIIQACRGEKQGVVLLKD
- Sequence (P29452 315-402 limits assumed): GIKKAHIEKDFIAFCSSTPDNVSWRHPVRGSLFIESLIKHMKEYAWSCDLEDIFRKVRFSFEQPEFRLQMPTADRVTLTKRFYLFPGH
- Assay text: Binding affinity against mouse Caspase-1
Catalogue of k3/ki readings, one per entry.

# annotated cases, reported k3/ki shown
{"Smiles input": "COC(=O)c1cc(OCC(=O)[C@H](CC(=O)O)NC(=O)[C@@H](NC(=O)COc2cccc3ccccc23)C(C)C)no1", "Measured parameter": "k3/ki", "Result value": "42500 1/m/s"}
{"Smiles input": "CC(C)[C@H](NC(=O)COc1cccc2ccccc12)C(=O)N[C@@H](CC(=O)O)C(=O)CSc1nnc(-c2ccccc2)o1", "Measured parameter": "k3/ki", "Result value": "280 1/m/s"}
{"Smiles input": "CC(C)[C@H](NC(=O)COc1cccc2ccccc12)C(=O)N[C@@H](CC(=O)O)C(=O)COc1nc2ccccc2[nH]1", "Measured parameter": "k3/ki", "Result value": "41 1/m/s"}
{"Smiles input": "CC(C)[C@H](NC(=O)COc1cccc2ccccc12)C(=O)N[C@@H](CC(=O)O)C(=O)CSc1nnnn1C", "Measured parameter": "k3/ki", "Result value": "3630 1/m/s"}

Give k3/ki for `CC(C)[C@H](NC(=O)COc1cccc2ccccc12)C(=O)N[C@@H](CC(=O)O)C(=O)COc1cc(C(F)(F)F)nn1-c1ccccc1`
7570 1/m/s

###

- System: Jurkat
- Assay text: Inhibitory concentration for cellular activity in jurkat assay
- Format: functional, cell-based
- Protocol conditions: Homo sapiens
pIC50: −log10 of the molar value.
Measured parameter: pIC50

{"Smiles input": "CC(C)[C@H](NC(=O)COc1cccc2ccccc12)C(=O)N[C@@H](CC(=O)O)C(=O)COc1cncc2ccccc12", "Experimental target": "Jurkat", "pIC50": 3.78}
{"Smiles input": "CC(C)[C@H](NC(=O)COc1cccc2ccccc12)C(=O)N[C@@H](CC(=O)O)C(=O)CSc1nnc(-c2ccccc2)o1", "Experimental target": "Jurkat", "pIC50": 3.82}

###

- Experimental target: Caspase-6 (Homo sapiens)
- Sequence (whole entry): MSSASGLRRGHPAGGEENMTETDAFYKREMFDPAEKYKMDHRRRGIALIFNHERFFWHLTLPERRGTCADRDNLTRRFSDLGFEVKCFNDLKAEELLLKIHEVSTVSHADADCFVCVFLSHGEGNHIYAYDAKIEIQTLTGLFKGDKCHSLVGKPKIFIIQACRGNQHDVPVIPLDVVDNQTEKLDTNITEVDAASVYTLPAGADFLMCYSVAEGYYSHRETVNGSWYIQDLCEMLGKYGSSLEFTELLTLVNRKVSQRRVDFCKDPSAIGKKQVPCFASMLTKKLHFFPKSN
- Assay text: Binding affinity against Caspase-6
Measured parameter: k3/ki

{"Smiles input": "CC(C)[C@H](NC(=O)COc1cccc2ccccc12)C(=O)N[C@@H](CC(=O)O)C(=O)COc1cccc2cccnc12", "Experimental target": "Caspase-6 (Homo sapiens)", "k3/ki": "140 1/m/s"}
{"Smiles input": "CC(C)[C@H](NC(=O)COc1cccc2ccccc12)C(=O)N[C@@H](CC(=O)O)C(=O)CSc1nc[nH]n1", "Experimental target": "Caspase-6 (Homo sapiens)", "k3/ki": "17 1/m/s"}
{"Smiles input": "CC(C)[C@H](NC(=O)COc1cccc2ccccc12)C(=O)N[C@@H](CC(=O)O)C(=O)COn1nnc2ccccc2c1=O", "Experimental target": "Caspase-6 (Homo sapiens)", "k3/ki": "44000 1/m/s"}
{"Smiles input": "CC(C)[C@H](NC(=O)COc1cccc2ccccc12)C(=O)N[C@@H](CC(=O)O)C(=O)COc1nccc(C(F)(F)F)n1", "Experimental target": "Caspase-6 (Homo sapiens)", "k3/ki": "0 1/m/s"}
{"Smiles input": "CC(C)[C@H](NC(=O)COc1cccc2ccccc12)C(=O)N[C@@H](CC(=O)O)C(=O)CSc1nc(-c2ccccc2)no1", "Experimental target": "Caspase-6 (Homo sapiens)", "k3/ki": "975 1/m/s"}
{"Smiles input": "CC(C)[C@H](NC(=O)COc1cccc2ccccc12)C(=O)N[C@@H](CC(=O)O)C(=O)COc1ccnc(C(F)(F)F)n1", "Experimental target": "Caspase-6 (Homo sapiens)", "k3/ki": "5150 1/m/s"}

Now look at this entry.
Give the reported k3/ki for this compound. `CC(C)[C@H](NC(=O)COc1cccc2ccccc12)C(=O)N[C@@H](CC(=O)O)C(=O)COc1ccccn1`
5 1/m/s

Numbers sourced from ChEMBL document CHEMBL1144434.
